The reported measurements were obtained from patent US9512107B2.

Test system: U87MG pLVX-IDH2 R140Q-neo cells
Protocol Text: U87MG pLVX-IDH2 R140Q-neo cell based assay, 2-HG in media by LC-MS at 48 hours
Test Conditions: Homo sapiens, U-87 MG
pIC50: −log10 of the molar value.
Measured Property: pIC50

1. CC(C)Nc1nc(Nc2cc(F)cc(F)c2)nc(-c2ccc(N)nc2)n1 :: > 7.00
2. CC(C)Nc1nc(Nc2ccnc(F)c2)nc(-c2cccc(Cl)n2)n1 :: > 7.00
3. OCCNc1nc(Nc2ccccc2)nc(-c2ccccc2)n1 :: 6.00 to 7.00
4. CC(C)Nc1nc(Nc2cccc(S(C)(=O)=O)c2)nc(-c2c(F)cccc2F)n1 :: > 7.00
5. CC(C)Nc1nc(Nc2cc(F)cc(F)c2)nc(-c2nccc(N)n2)n1 :: > 7.00
6. CC1(C(=O)Nc2nc(Nc3ccccc3)nc(-c3ccccc3)n2)CC1 :: 6.00 to 7.00
7. CC(C)Nc1nc(Nc2cc(F)cc(F)c2)nc(-c2ncccc2F)n1 :: > 7.00
8. Fc1cncc(Nc2nc(NC3COC3)nc(-c3ccccc3F)n2)c1 :: > 7.00
9. CC(C)Nc1nc(Nc2ccc(F)nc2)nc(-c2cccc(N)n2)n1 :: 6.00 to 7.00
10. COc1cccc(-c2nc(Nc3ccnc(C(F)(F)F)c3)nc(NC(C)C)n2)c1F :: > 7.00
11. CC(C)CNc1nc(Nc2cncc(F)c2)nc(-c2ccccc2F)n1 :: > 7.00
12. CC(C)(C)OC(=O)Nc1nc(Nc2ccccc2)nc(-c2ccccc2)n1 :: > 7.00
13. O[C@@H]1CC[C@@H](Nc2nc(Nc3ccccc3)nc(-c3ccccc3)n2)C1 :: 6.00 to 7.00
14. CC(C)Nc1nc(Nc2cc(F)cc(F)c2)nc(-c2ccnc(N)n2)n1 :: > 7.00
15. CC(C)Nc1nc(Nc2ccnc(C#N)c2)nc(-c2ccccc2)n1 :: > 7.00
16. CS(=O)(=O)c1cccc(Nc2nc(NC3CCC3)nc(-c3ccccc3F)n2)c1 :: > 7.00
17. c1ccc(-c2nc(Nc3ccncc3)nc(NC3C4COCC43)n2)cc1 (stereo not drawn) :: > 7.00
18. CC(C)Nc1nc(Nc2ccc(S(C)(=O)=O)cc2)nc(-c2ccccc2)n1 :: 5.00 to 6.00
